- System: Mycobacterium tuberculosis
- ASSAY_EXPLANATION: Antimycobacterial activity against Mycobacterium tuberculosis H37Rv assessed as inhibition of bacterial growth by resazurin dye based fluorescence analysis
- Format: functional
Exercise: for every item that follows, state its recorded MIC.
Dear colleague, please return just the value in µM, with no unit written.

MIC reading for O=S(=O)(NCCO)c1ccc(-c2nnn(CC3CCCCO3)n2)cc1 (stereo not drawn) : 0.1

MIC reading for O=S(=O)(NCCO)c1ccc(-c2nnn(Cc3ccc(F)cn3)n2)cc1Cl : 0.1

MIC reading for N#CCNS(=O)(=O)c1ccc(-c2nnn(Cc3ccc(F)cc3)n2)cc1 : 0.1

###

Exercise: for every item that follows, state its recorded selectivity ratio.
- ASSAY_EXPLANATION: Selectivity index, ratio of GI50 for cytotoxicity against human HeLa cells to MIC for antitubercular activity against dormant stage of Mycobacterium tuberculosis H37Ra
- Type: toxicity, cell-based
- TEST_CONTEXT: read-out: Selectivity Index

selectivity ratio reading for COC(=O)c1ccsc1NC(=O)[C@@H]1CCCN1 : > 74.6

selectivity ratio reading for O=C(OCc1ccccc1)c1ccsc1NC(=O)[C@@H]1CCCN1 : > 66.5

selectivity ratio reading for O=C(Oc1ccccc1)c1ccsc1NC(=O)[C@@H]1CCCN1 : > 10.6

selectivity ratio reading for O=C(OCC(Cl)(Cl)Cl)c1ccsc1NC(=O)[C@@H]1CCCN1 : > 15.5
